Molecular target: recombinant human progesterone receptor B (hPR-B) (Homo sapiens, UniProt P06401)
Sequence (P06401 1-933): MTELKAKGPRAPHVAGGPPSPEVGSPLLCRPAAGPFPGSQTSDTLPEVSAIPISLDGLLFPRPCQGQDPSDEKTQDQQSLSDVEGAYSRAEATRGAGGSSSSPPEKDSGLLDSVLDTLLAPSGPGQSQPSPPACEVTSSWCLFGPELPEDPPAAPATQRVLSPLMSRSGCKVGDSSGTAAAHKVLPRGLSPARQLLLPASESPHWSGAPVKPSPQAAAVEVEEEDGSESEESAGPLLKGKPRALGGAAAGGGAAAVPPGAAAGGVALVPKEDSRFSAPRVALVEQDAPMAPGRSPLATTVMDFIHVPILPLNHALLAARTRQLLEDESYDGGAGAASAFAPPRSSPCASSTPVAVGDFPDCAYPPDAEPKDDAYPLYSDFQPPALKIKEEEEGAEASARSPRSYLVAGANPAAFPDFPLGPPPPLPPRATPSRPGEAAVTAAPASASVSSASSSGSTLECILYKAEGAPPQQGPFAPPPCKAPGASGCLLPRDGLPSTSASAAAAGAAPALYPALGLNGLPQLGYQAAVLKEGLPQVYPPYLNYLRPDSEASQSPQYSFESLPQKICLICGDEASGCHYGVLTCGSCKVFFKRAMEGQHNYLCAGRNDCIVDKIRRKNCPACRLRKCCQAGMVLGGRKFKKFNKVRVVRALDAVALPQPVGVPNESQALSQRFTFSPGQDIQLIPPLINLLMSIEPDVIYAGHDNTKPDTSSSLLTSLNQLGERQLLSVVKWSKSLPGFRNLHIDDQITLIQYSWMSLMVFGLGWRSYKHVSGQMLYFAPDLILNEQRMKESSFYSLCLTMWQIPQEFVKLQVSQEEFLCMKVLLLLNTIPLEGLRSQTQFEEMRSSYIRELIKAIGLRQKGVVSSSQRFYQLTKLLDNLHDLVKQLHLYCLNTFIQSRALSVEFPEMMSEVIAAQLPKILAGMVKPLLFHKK
Assay: Progestin receptor binding assay, hPR-B
Conditions: relative binding affinity, progesterone = 100
Parameter hPR-B RBA: see the listing below.
measured.quantity: hPR-B RBA (%)

C[C@]12C=CC(=O)C=C1C1(CC1)CC1C2CC[C@@]2(C)C1[C@@H]1CC1[C@@]21CCC(=O)O1 (some centres unmarked) [Compound (IVb)]; 38
C[C@]12CCC(=O)C=C1C1(CC1)CC1C2CC[C@@]2(C)C1[C@@H]1CC1[C@@]21CCC(=O)O1 (some centres unmarked) [Compound (IVa)]; 116
C[C@]12CCC(=O)C=C1[C@@H]1C[C@@H]1[C@H]1[C@@H]3[C@@H]4C[C@@H]4[C@@]4(CCC(=O)O4)[C@@]3(C)CC[C@@H]12 [Drospirenone]; 29
C[C@@]12C(=CC(=O)C3C[C@@H]31)C1(CC1)CC1C2CC[C@@]2(C)C1[C@@H]1CC1[C@@]21CCC(=O)O1 (some centres unmarked) [Compound (IVc)]; 71

* * *

Target: recombinant human progesterone receptor A (hPR-A) (Homo sapiens, UniProt P06401)
Sequence (P06401 1-769 isoform P06401-2): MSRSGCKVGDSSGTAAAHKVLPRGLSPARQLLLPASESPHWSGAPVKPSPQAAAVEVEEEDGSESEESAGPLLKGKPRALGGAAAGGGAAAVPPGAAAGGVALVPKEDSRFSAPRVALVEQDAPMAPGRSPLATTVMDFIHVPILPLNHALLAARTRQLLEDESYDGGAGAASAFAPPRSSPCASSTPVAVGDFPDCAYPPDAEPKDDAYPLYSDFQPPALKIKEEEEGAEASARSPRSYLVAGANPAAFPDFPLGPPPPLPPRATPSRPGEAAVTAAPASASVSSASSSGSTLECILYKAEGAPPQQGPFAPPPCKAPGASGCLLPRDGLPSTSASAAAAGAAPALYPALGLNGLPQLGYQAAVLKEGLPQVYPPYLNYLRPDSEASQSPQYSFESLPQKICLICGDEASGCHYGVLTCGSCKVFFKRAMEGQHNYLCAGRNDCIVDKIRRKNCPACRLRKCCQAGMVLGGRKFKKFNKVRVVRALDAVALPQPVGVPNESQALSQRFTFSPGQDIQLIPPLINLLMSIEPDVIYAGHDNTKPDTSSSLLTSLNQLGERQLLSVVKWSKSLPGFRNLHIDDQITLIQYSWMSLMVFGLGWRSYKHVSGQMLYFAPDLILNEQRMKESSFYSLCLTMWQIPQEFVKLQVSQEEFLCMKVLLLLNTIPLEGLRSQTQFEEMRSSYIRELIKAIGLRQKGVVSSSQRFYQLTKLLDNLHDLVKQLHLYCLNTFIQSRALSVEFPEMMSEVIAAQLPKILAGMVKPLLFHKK
Test: Progestin receptor binding assay, hPR-A
Details: competition with [3H]-progesterone
pIC50: −log10 of the molar value.
Parameter pIC50: see the listing below.
measured.quantity: pIC50

C[C@@]12C(=CC(=O)C3C[C@@H]31)C1(CC1)CC1C2CC[C@@]2(C)C1[C@@H]1CC1[C@@]21CCC(=O)O1 (stereo partly shown); 8.17
C[C@]12CCC(=O)C=C1C1(CC1)CC1C2CC[C@@]2(C)C1[C@@H]1CC1[C@@]21CCC(=O)O1 (stereo partly shown); 8.46
C[C@]12C=CC(=O)C=C1C1(CC1)CC1C2CC[C@@]2(C)C1[C@@H]1CC1[C@@]21CCC(=O)O1 (stereo partly shown); 7.86

* * *

Target: recombinant human progesterone receptor B (hPR-B) (Homo sapiens, UniProt P06401)
Assay: Progestin receptor binding assay, hPR-B
Conditions: competition with [3H]-progesterone
Experimental: “No compound” controls contain DMSO/binding buffer without compound. The plates are incubated overnight at 4° C., after which solutions in the plates are aspirated and washed six times with PBS, followed by the addition of MicroScint-20 scintillation cocktail (Packard). The plates are sealed using transparent sealing tape and counted for radioactivity by use of the scintillation counter.
Parameter IC50: see the listing below.
measured.quantity: IC50 (nM)

C[C@]12C=CC(=O)C=C1C1(CC1)CC1C2CC[C@@]2(C)C1[C@@H]1CC1[C@@]21CCC(=O)O1 (stereo partly shown); 15.4
C[C@]12CCC(=O)C=C1C1(CC1)CC1C2CC[C@@]2(C)C1[C@@H]1CC1[C@@]21CCC(=O)O1 (stereo partly shown); 5.1
C[C@@]12C(=CC(=O)C3C[C@@H]31)C1(CC1)CC1C2CC[C@@]2(C)C1[C@@H]1CC1[C@@]21CCC(=O)O1 (stereo partly shown); 8.3

Where these numbers come from: patent US7960368B2
